B1: ZNF207 (parent)
chain: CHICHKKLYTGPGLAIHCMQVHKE

- Variants of: B1
- Method Notes: protein stability index of a GFP-peptide fusion (GPS, HEK-293T) (PSI 1-6); higher = more stable;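 also: lentivirally expressed fusions sorted by FACS into six bins by GFP to DsRed ratio, PSI derived from sequencing read proportions per bin multiplied by bin number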
- Condition Summary: c terminus: a fixed tail appended
Property Name: protein stability index
// no unit, no text: just the number

M19W; 2.48
P12F; 2.41
C1Q; 1.8
K23G; 3.68
P12N; 4.09

Suppose we examine the variant E24N ; what protein stability index value has been reported?
2.44

# query: protein stability index of entry H22F
1.92

Request the reported protein stability index associated with V21L
3

Using the record for Y9Q , report its protein stability index.
3.93

Record request: protein stability index value, item T10D
4.59
